Test system: proteinase enzyme (trypsin)
Test: Proteinase enzyme inhibition (anti-inflammatory)
Type: biochemical
Details: equal concentrations (1000 µg/mL); mean ± SE
PARAMETER: Inhibition (%) Proteinase
Please reply with the bare figure in % and do not write the unit itself.

// known answers, use as guide
| COMPOUND_STRING | TEST_SYSTEM | Inhibition (%) Proteinase |
| --- | --- | --- |
| Cc1nn(-c2ccccc2)c(Cl)c1C=Nc1[nH]nc(Nc2ccccc2)c1C(=O)Nc1ccc(Cl)cc1 | proteinase enzyme (trypsin) | 15.62 |
| COc1ccc(Nc2n[nH]c(N=Cc3c(C)n(C)n(-c4ccccc4)c3=O)c2C(=O)Nc2ccc(Cl)cc2)cc1 | proteinase enzyme (trypsin) | 24.13 |

Task: Form field: reported Inhibition (%) Proteinase of `Cc1c(C=Nc2[nH]nc(Nc3ccccc3)c2C(=O)Nc2ccccc2)c(=O)n(-c2ccccc2)n1C`
Output: 23.37

Task: Form field: reported Inhibition (%) Proteinase of `COc1ccc(Nc2n[nH]c(/N=C/c3ccc(N4CCCCC4)cc3)c2C(=O)Nc2ccc(C)cc2)cc1`
Output: 23.76
